# tested target: T1, rat collagen, acid soluble, type I, rat tail (Upstate 08-115) (rat, UniProt P02454 152-1207; P02466 86-1125)
# T1 construct: tissue extract, gelled and dried in wells; also called dried rat collagen
# T1 sequence (P02454 152-1207, chain 1 of 2): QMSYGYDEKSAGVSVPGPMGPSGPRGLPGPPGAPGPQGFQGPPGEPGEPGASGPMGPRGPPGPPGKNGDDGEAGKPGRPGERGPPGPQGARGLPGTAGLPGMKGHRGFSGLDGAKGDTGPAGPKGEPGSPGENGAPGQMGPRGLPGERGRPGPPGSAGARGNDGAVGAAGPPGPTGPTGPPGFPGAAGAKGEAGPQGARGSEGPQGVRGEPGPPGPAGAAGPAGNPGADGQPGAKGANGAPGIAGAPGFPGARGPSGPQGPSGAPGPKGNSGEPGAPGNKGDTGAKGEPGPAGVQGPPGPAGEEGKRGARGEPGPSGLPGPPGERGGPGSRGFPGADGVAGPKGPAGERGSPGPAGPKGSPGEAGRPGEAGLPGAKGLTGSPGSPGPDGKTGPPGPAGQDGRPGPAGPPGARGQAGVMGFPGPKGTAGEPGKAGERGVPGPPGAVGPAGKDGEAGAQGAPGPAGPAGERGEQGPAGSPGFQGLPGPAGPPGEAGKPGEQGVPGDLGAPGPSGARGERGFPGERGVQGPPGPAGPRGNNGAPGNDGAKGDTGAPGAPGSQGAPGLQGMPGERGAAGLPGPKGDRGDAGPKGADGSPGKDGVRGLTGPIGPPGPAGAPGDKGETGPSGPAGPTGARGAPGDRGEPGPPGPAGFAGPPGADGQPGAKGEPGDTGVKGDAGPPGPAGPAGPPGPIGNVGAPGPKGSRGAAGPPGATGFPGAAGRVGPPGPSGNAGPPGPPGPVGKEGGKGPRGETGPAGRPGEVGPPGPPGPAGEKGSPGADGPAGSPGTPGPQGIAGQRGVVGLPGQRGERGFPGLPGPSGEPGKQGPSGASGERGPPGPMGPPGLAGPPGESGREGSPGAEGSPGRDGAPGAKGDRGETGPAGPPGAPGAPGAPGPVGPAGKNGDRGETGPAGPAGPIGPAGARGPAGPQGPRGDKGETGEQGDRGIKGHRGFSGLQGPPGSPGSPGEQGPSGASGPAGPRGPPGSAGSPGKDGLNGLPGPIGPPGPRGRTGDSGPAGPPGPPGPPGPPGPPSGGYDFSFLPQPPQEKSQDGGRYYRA
# T1 sequence (P02466 86-1125, chain 2 of 2): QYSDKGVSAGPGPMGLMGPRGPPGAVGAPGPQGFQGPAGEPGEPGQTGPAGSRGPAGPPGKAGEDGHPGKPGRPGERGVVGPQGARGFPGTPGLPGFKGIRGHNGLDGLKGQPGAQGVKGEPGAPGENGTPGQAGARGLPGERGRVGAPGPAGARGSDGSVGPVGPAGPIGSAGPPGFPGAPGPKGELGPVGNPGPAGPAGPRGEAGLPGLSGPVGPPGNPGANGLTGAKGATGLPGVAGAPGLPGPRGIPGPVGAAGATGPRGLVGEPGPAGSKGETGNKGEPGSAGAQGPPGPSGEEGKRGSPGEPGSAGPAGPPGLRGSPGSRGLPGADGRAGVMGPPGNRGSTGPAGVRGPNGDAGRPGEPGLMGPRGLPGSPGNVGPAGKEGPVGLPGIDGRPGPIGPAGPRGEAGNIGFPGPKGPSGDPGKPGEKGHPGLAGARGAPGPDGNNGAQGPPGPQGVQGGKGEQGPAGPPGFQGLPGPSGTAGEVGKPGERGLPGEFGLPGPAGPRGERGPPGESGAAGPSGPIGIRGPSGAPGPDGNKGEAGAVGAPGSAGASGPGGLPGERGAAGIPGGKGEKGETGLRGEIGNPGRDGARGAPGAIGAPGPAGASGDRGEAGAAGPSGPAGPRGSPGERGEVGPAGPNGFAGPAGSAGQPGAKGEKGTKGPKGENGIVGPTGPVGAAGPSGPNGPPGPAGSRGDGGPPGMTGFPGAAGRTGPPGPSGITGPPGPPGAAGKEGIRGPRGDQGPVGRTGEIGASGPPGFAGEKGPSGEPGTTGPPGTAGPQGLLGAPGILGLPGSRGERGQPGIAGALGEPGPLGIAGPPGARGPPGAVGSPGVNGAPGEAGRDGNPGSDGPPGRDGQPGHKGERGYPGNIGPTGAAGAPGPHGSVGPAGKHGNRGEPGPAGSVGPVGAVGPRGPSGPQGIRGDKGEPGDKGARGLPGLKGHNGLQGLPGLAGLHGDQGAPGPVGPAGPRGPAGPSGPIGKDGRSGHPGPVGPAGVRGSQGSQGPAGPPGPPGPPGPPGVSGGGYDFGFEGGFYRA
# test description: dried collagen assay
Bridge positions count the residues as written; N and C are the ends. Square brackets hold non-standard residues; d marks the D form. Primed or numbered codes have the meaning given here. Ends that are not written are not given here. Gd^T″ = GdDTPA-thiourea
endpoint name: % bound (%)

P = {Gd^T″}-K(Gd^T″)K(Gd^T″)WHCYTYFPHHYCVYG (disulfide 5-14 (inferred); not fully specified (C-terminus)) [Compound ID 801]
Q = {Gd^T″}-DWTCS[dA]DEYTWHCNYE (disulfide 4-13 (inferred); not fully specified (C-terminus)) [Compound ID 835]
// which entry reports the smaller % bound, P or Q ? Provide the label of your selected option as the answer.
Q
(Q: 9%, P: 77%)
